Tested on: NCI-H1876 tumor spheroid viability
experiment: Anticancer human tumor NCI-H1876 cell line growth inhibition; active = viability on the fitted dose curve at most 10% of control; inactive = the rest;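 also: spheroids exposed to compounds for seven days before the viability read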
study-conditions: second compound 0.003 µM; first compound 10 µM; spheroids with HUVEC and MSC
Choose the fitting class; nothing outside active, inactive is accepted.

# input Assay outcome for Cc1cc(C)c(CNC(=O)c2cc(-c3ccc(CN4CCOCC4)cc3)cc3c2cnn3C2CCCC2)c(=O)[nH]1 + CC[C@@]1(O)C(=O)OCc2c1cc1n(c2=O)Cc2cc3c(CN(C)C)c(O)ccc3nc2-1 : what was it?
# output inactive

# input What outcome does the record of this test show for CC(C)n1c(=O)n(C)c2cnc3cc(F)c(-c4ccc(OCCCN5CCCCC5)nc4)cc3c21 + CC[C@@]1(O)C(=O)OCc2c1cc1n(c2=O)Cc2cc3c(CN(C)C)c(O)ccc3nc2-1 ?
# output inactive

# input In this assay, the call recorded for COc1ccc([C@@H](O)c2cc(-c3ncnc4cc(N5CCOCC5)ccc34)c(F)cc2Cl)nn1 + CC[C@@]1(O)C(=O)OCc2c1cc1n(c2=O)Cc2cc3c(CN(C)C)c(O)ccc3nc2-1 was what?
# output inactive

# input Recorded call for COc1cc(C)[nH]c(=O)c1CN1CCc2c(Cl)cc(C(OC)C3COC3)c(Cl)c2C1=O (centres undefined) + COc1cc2c(cc1O)CCNC21CSC2c3c(OC(C)=O)c(C)c4c(c3C(COC1=O)N1C(O)C3Cc5cc(C)c(OC)c(O)c5C(C21)N3C)OCO4 ?
# output active
